- target under test: human ENPP2 (Homo sapiens (Human), UniProt Q13822)
- assay explanation: Measurement of human ENPP2 inhibitory activity
- Format: biochemical
- measurement conditions: human ENPP2, 16:0-LPC substrate, read-out: ENPP2 inhibitory activity rate (%)
- Procedure: 10 μL of a test compound solution (10% dimethyl sulfoxide) at each concentration and 40 μL of a 5 μg/mL human ENPP2 solution (buffer A: 100 mmol/L Tris-HCl (pH 9.0), 500 mmol/L NaCl, 5 mmol/L MgCl2, 0.05% Triton X-100) were mixed, 50 μL of a 2 mmol/L 16:0-lysophosphatidylcholine (LPC) solution (buffer A) was further added to react at 37° C. for 24 hours. […]
As shown below, each of these compounds has a reported inhibition at 1 µM value.
Please provide the amount together with its unit, number first.

INSERT INTO measurements (compound, measured_result) VALUES
  ('CC1(C)[C@@H](CC(=O)N2CCc3c(n(Cc4cnc(C(F)(F)F)s4)c4ccccc34)C2)CC[C@@]1(C)C(=O)O [Example 6(49)]', '99.1%'),
  ('CC1(C(=O)O)CCN(CC(=O)N2CCc3c(n(Cc4ccc(C(F)(F)F)s4)c4ncccc34)C2)CC1 [Example 7(39)]', '99.5%'),
  ('CCc1cccc(Cn2c3c(c4cccnc42)CCN(C(=O)CC24CCC(C(=O)O)(CC2)C4)C3)c1 [Example 6(72)]', '99.3%'),
  ('O=C(C[C@H]1CC[C@H](C(=O)O)CC1)N1CCc2c(n(Cc3ccc(C(F)(F)F)s3)c3ncccc23)C1 [Example 6(16)]', '99%'),
  ('O=C(C[C@H]1CC[C@H](C(=O)O)CC1)N1CCc2c(n(Cc3csc(C(F)(F)F)c3)c3ncccc23)C1 [Example 6(13)]', '99.2%');

Give human ENPP2 (Homo sapiens (Human), UniProt Q13822) inhibition at 1 µM for the following compound: C[C@]1(C(=O)O)CC[C@H](CC(=O)N2CCc3c(n(Cc4cnc(C(F)(F)F)s4)c4ncccc34)C2)CC1 [Example 10(5)]
97.4%

# lookup: human ENPP2 (Homo sapiens (Human), UniProt Q13822) inhibition at 1 µM, key = O=C(CC12CCC(C(=O)O)(CC1)C2)N1CCc2c(n(Cc3ccc(C(F)(F)F)cc3)c3ncccc23)C1 [Example 6(68)]
99.2%
